Listed binders paired with reported Kd
# Target under test: T1, Myogenin;E47 (Rattus norvegicus;Mus musculus, UniProt P20428;P15806-2 1-287;1-648, |)
# T1 sequence 1: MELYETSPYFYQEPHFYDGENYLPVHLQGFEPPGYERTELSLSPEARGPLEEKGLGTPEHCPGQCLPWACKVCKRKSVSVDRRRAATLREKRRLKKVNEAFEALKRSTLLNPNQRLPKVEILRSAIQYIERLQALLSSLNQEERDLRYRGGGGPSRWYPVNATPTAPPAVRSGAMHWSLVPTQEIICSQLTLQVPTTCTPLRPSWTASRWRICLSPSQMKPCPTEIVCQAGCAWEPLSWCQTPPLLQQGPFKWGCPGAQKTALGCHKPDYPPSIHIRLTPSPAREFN
# T1 sequence 2: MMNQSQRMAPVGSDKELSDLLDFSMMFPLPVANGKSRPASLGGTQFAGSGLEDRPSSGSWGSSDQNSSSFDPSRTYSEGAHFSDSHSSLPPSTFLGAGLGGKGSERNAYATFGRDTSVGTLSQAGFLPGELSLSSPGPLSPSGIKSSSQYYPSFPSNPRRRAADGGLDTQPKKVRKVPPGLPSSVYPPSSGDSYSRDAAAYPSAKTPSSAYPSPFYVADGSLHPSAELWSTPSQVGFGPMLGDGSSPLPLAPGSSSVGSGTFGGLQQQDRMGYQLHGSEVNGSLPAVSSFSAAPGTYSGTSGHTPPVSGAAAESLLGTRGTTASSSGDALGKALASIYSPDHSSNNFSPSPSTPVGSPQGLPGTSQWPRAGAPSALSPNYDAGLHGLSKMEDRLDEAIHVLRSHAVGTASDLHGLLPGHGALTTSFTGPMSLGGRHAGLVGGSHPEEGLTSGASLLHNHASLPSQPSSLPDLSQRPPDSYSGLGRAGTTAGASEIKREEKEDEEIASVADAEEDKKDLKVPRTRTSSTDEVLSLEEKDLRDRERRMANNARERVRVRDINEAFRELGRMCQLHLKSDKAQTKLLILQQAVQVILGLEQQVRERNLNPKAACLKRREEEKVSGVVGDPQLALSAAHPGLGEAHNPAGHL
# Measurement protocol: EMSA
Readout type: Kd (nM)

[[record]]
binder = "CATGGGGGCGGGAAGGGGCGGGGTCT (structured_DNA) [G'2 integrin DNA]"
reading = 8.5

[[record]]
binder = "E-box DNA (dsDNA) DNA 1: TCGATCCCCCAACACCTGCTGCCTGA DNA 2: TCAGGCAGCAGGTGTTGGGGGACGA"
reading = 0.2

